# SYSTEM TESTED: hGPR119 (Homo sapiens, UniProt Q8TDV5)
# METHOD NOTES: In vitro cyclic AMP assay (Cisbio dynamic 2 HTRF kit) in CHO-hGPR119 cells
# TEST PARAMETERS: cAMP
We begin with a simple list: items and their reported EC50.

Below, each entry is followed by its recorded EC50 result.
>  <COMPOUND>
CCc1cnc(N2CCC([C@H](C)Oc3nc4ccc(-c5ccnc(F)c5)nc4s3)CC2)nc1 [Compound 1104]

>  <SYSTEM TESTED>
hGPR119 (Homo sapiens, UniProt Q8TDV5)

>  <EC50>
0.025 to 0.05 µM

$$$$
>  <COMPOUND>
CCc1cnc(N2CCC([C@H](C)Oc3nc4ccc(-c5ccc(C(F)(F)F)nc5)nc4s3)CC2)nc1 [Compound 1154]

>  <SYSTEM TESTED>
hGPR119 (Homo sapiens, UniProt Q8TDV5)

>  <EC50>
0.025 to 0.05 µM

$$$$
>  <COMPOUND>
CCc1cnc(N2CCC([C@H](C)Oc3nc4ccc(-c5cnc(Cl)nc5)nc4s3)CC2)nc1 [Compound 1135]

>  <SYSTEM TESTED>
hGPR119 (Homo sapiens, UniProt Q8TDV5)

>  <EC50>
< 0.025 µM

$$$$

(Q) Report EC50, nothing else, for this compound: CCc1noc(N2CCC([C@H](C)Oc3nc4ccc(-c5ccc(S(C)(=O)=O)nc5)nc4s3)CC2)n1 [Compound 1160]
(A) 0.025 to 0.05 µM

(Q) Answer with the recorded EC50 of CC(C)c1noc(N2CCC([C@H](C)Oc3nc4ccc(-c5cnc(Cl)nc5)nc4s3)CC2)n1 [Compound 1119] only.
(A) < 0.025 µM

(Q) Consider the compound CC(C)c1noc(N2CCC([C@H](C)Oc3nc4ncc(-c5ccc(S(C)(=O)=O)nc5)nc4s3)CC2)n1 [Compound 1114] and give its recorded EC50.
(A) 0.05 to 0.1 µM

(Q) Specify reported EC50 for the compound shown: CC(C)c1noc(N2CCC([C@H](C)Oc3nc4ccc(-c5ccncc5F)nc4s3)CC2)n1 [Compound 1096]
(A) 0.05 to 0.1 µM

----------
# SYSTEM TESTED: hGPR119 (Homo sapiens)
# Construct: expressed in transfected cells; host or cells: CHO
# Sequence (Q8TDV5 1-335): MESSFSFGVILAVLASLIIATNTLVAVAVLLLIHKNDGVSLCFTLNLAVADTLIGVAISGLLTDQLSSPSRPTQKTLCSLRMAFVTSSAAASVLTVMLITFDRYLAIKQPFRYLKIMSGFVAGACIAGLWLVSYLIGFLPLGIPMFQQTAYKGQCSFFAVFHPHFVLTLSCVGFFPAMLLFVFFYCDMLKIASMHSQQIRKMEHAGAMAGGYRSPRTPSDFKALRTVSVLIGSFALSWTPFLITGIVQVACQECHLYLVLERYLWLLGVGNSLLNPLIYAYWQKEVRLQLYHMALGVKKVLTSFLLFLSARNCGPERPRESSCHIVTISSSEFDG
# METHOD NOTES: In vitro cyclic AMP assay (Cisbio dynamic 2 HTRF kit) in CHO-hGPR119 cells
# Type: cell-based
# TEST PARAMETERS: 1 h, cAMP, compound at 1 μM, 60 min, read-out: Induction (% induction at 1 μM)
OBSERVABLE: activation at 1 µM (%)

Known results for compounds:
>  <COMPOUND>
CCc1ccc(N2CCC(C(C)Oc3nc4ccc(-c5ccc(S(C)(=O)=O)cc5)nc4s3)CC2)nc1 (centres unmarked) [Compound 1087]

>  <SYSTEM TESTED>
hGPR119 (Homo sapiens)

>  <activation at 1 µM [%]>
74

$$$$
>  <COMPOUND>
COCC[S+]([O-])c1ccc(-c2ccc3nc(OC(C)C4CCN(c5nc(C(C)C)no5)CC4)sc3n2)cc1 (centres unmarked) [Compound 1068]

>  <SYSTEM TESTED>
hGPR119 (Homo sapiens)

>  <activation at 1 µM [%]>
13

$$$$
>  <COMPOUND>
COCCNC(=O)c1ccc(-c2ccc3nc(N4CCC(c5nc(C(C)C)no5)CC4)sc3n2)cc1 [Compound 1024]

>  <SYSTEM TESTED>
hGPR119 (Homo sapiens)

>  <activation at 1 µM [%]>
53

$$$$
>  <COMPOUND>
CCc1cnc(N2CCC(C(=O)Nc3nc4ccc(-c5ccc(S(C)(=O)=O)cc5)nc4s3)CC2)nc1 [Compound 1014]

>  <SYSTEM TESTED>
hGPR119 (Homo sapiens)

>  <activation at 1 µM [%]>
5

$$$$
>  <COMPOUND>
CCCc1cnc(N2CCC(C(C)Oc3nc4ncc(-c5ccc(S(C)(=O)=O)cc5)nc4s3)CC2)nc1 (centres unmarked) [Compound 1110]

>  <SYSTEM TESTED>
hGPR119 (Homo sapiens)

>  <activation at 1 µM [%]>
78

$$$$

A. CC(C)OC(=O)N1CCC(c2nc3ccc(-c4ccc(S(C)(=O)=O)cc4)nc3s2)CC1 [Compound 1013]
B. CC(C)c1noc(N2CCC(C(C)Oc3nc4ccc(-c5ccnnc5)nc4s3)CC2)n1 (centres unmarked) [Compound 1134]
(Q) Please state the entry with greater activation at 1 µM among A and B . When you have decided, please share the label of that item.
(A) B
(B: 40%, A: 11%)

----------
# SYSTEM TESTED: hGPR119 (Homo sapiens)
# Construct: expressed in transfected cells; host or cells: CHO
# METHOD NOTES: In vitro cyclic AMP assay (Cisbio dynamic 2 HTRF kit) in CHO-hGPR119 cells
# Format: cell-based
# TEST PARAMETERS: 1 h, cAMP, compound at 1 μM, 60 min, read-out: Induction (% induction at 1 μM)
OBSERVABLE: activation at 1 µM (%)

>  <COMPOUND>
CC(C)c1noc(C2CCN(c3ccc4nc(-c5ccc(S(C)(=O)=O)cc5)sc4n3)CC2)n1

>  <OBSERVABLE>
activation at 1 µM

>  <OUTPUT UNIT>
%

>  <OBSERVED RESULT>
29

$$$$

I. CC(C)c1noc(N2CCC(C(C)Oc3nc4ccc(-c5ccnc(Cl)c5)nc4s3)CC2)n1 (stereo not drawn)
II. CC(C)c1noc(C2CCN(c3nc4ccc(-c5ccncc5)nc4s3)CC2)n1
(Q) I'm curious whether I or II has the smaller activation at 1 µM number. Which is it? Answer = label.
(A) II
